Ref: patent US7678808B2

Test system: human neural stem cells (hNSCs)
test method notes: Astrocyte differentiation of hNSCs (GFAP staining)
Assay type: cell-based
condition details: Homo sapiens, Neural stem cell; agent alone; hNSC
pEC50: −log10 of the molar value.
endpoint label: pEC50

| compound | qual | experimental value |
| --- | --- | --- |
| O=C1CC2(CCCC2)CC(=O)N1CCCCN1CCN(c2ncccn2)CC1 | = | 5.24 |
| NC(=O)C[S+]([O-])C(c1ccccc1)c1ccccc1 (centres unmarked) | < | 4.50 |
